Tested on: p-ERK1/2 in HCT116 cells
PROTOCOL_DESCRIPTION: AlphaLISA p-ERK assay, cellular inhibition of ERK phosphorylation in HCT116 cells
Assay type: cell-based
MEASUREMENT_CONDITIONS: Homo sapiens, HCT-116, 2 hours treatment, PMA stimulation 30 mins
OUTCOME_MEASURE: IC50

Here is how some molecules turned out for IC50.
# MOLECULE, MEAS_VALUE
rows = [
    ("CNS(=O)(=O)Nc1cccc(CN2C(=O)Oc3cc(Oc4ncco4)ccc3C23COC3)c1F [Compound 95]", "1 to 10 nM"),
    ("CNS(=O)(=O)Nc1cccc(CN2Cc3ccc(Oc4ncco4)cc3OC2=O)c1F [Compound 80]", "10 to 100 nM"),
    ("CNS(=O)(=O)Nc1cccc(CN2Cc3ccc(C(F)(F)C(=O)N(C)C)cc3OC2=O)c1F [Compound 133]", "10 to 100 nM"),
    ("CNS(=O)(=O)Nc1cccc(CN2C(=O)Oc3cc(Oc4cccnn4)c(F)cc3[C@H]2C)c1F (single isomer, unassigned) [Compound 67]", "1 to 10 nM"),
    ("CNS(=O)(=O)Nc1cccc(CN2Cc3c(F)cc(OC(=O)N(C)C)cc3OC2=O)c1F [Compound 118]", "1 to 10 nM"),
]

Each molecule below has a recorded value; state its IC50.
1. CNS(=O)(=O)Nc1cccc(CN2C(=O)Oc3cc(Oc4cccnn4)cc(F)c3C23COC3)c1F [Compound 63]
2. CNS(=O)(=O)Nc1cccc(CN2C(=O)Oc3cc(Oc4cccnn4)c(F)cc3C23CCC3)c1F [Compound 19]
3. CNS(=O)(=O)Nc1nccc(CN2C(=O)Oc3cc(Oc4cccnn4)ccc3C23CCC3)c1F [Compound 20]
4. CNS(=O)(=O)Nc1cccc(CN2Cc3c(F)cc(Oc4ncccn4)cc3OC2=O)c1F [Compound 117]
5. CNS(=O)(=O)Nc1cccc(CN2C(=O)Oc3cc(Oc4cccnn4)ccc3C23CCC3)c1F [Compound 41]
6. O=C1Oc2cc(Oc3cccnn3)c(F)cc2C2(COC2)N1Cc1cccc(NS(=O)(=O)C2CC2)c1F [Compound 53]
7. CNS(=O)(=O)Nc1cccc(CN2C(=O)Oc3cc(Oc4cccnn4)ccc3C23COC3)c1F [Compound 81]

## Output
1. 1 to 10 nM
2. < 1 nM
3. 1 to 10 nM
4. 1 to 10 nM
5. 1 to 10 nM
6. 10 to 100 nM
7. 1 to 10 nM

Each molecule below has a recorded value; state its IC50.
1. CNS(=O)(=O)Nc1cccc(CN2C(=O)Oc3c(ccc(Oc4cccnn4)c3F)C23COC3)c1F [Compound 42]
2. CNS(=O)(=O)Nc1cccc(CN2C(=O)Oc3cc(Oc4cccnn4)c(F)cc3[C@@H]2C)c1F (single isomer, unassigned) [Compound 66]
3. CNS(=O)(=O)Nc1cccc(CN2C(=O)Oc3cc(OC(=O)N(C)C)ccc3C23COC3)c1F [Compound 115]

## Output
1 to 10 nM
1 to 10 nM
1 to 10 nM

====

Give measured pEC50 for each item. Keep answers brief.
Test system: BRAF-MEK1
PROTOCOL_DESCRIPTION: BRAF-MEK TR-FRET assay, stabilization of MEK1 and BRAF interaction
Format: binding
MEASUREMENT_CONDITIONS: 4 nM BRAF, 10 nM MEK, 100 μM ATP; 1 hr at 25° C.; read-out: BRAF-MEK TR-FRET Assay (EC50, fold stabilization)
pEC50: −log10 of the molar value.

Here is how some molecules turned out for pEC50.
# MOLECULE, TARGET_SYSTEM, pEC50
rows = [
    ("CNS(=O)(=O)Nc1cccc(CN2C(=O)Oc3cc(Oc4cccnn4)c(F)cc3C23CCC3)c1F", "BRAF-MEK1", "> 7.30"),
    ("CNS(=O)(=O)Nc1cccc(CN2C(=O)Oc3cc(Oc4cccnn4)c(F)cc3[C@H]2C)c1F (single isomer, unassigned)", "BRAF-MEK1", "6.00 to 6.70"),
    ("CNS(=O)(=O)Nc1cccc(CN2Cc3cc(F)c(OC(=O)N(C)C)c(F)c3OC2=O)c1F", "BRAF-MEK1", "6.70 to 7.30"),
]

## Input Return value of pEC50 for input CNS(=O)(=O)Nc1cccc(CN2C(=O)Oc3cc(Oc4cccnn4)ccc3C23CCC3)c1F , no commentary.
## Output > 7.30
